Hello, the source for this data is patent US20260028326A1, in case you need it.

Biological target: human Cereblon WT GST-tagged protein (Homo sapiens (Human), UniProt Q96SW2)
Sequence (Q96SW2 whole entry): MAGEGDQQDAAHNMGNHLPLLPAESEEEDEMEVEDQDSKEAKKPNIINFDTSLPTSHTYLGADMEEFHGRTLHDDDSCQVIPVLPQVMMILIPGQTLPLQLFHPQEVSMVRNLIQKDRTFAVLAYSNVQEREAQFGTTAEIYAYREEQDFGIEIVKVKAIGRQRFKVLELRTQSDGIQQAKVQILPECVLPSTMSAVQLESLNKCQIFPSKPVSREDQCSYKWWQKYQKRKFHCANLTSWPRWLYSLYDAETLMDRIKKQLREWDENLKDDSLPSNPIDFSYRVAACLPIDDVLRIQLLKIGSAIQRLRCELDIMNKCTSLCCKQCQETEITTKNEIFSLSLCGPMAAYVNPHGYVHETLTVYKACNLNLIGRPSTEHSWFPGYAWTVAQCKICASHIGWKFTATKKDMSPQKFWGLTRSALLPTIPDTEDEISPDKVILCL
Assay: CRBN-binding affinity, HTRF (CEREBLON BINDING kit)
Lab note: anything with IC50 below 0.6 µM is marked true (1); values at 0.6 µM or higher are marked false (0).

Completed entries (count: 4):
**Q:** Would you kindly verify if IC50 of O=C1CCC(N2Cc3cc(CN4CC5CCC(C4)N5C(=O)c4ccccc4-c4ccc(Cl)cc4)ccc3C2=O)C(=O)N1 (centres unmarked) is strictly less than 0.6 µM?
**A:** true (1)

**Q:** Find out if reported IC50 for O=C1CCC(N2Cc3cc(CN4C5CC4CN(Cc4ccccc4-c4ccc(Cl)cc4)C5)cc(F)c3C2=O)C(=O)N1 (centres unmarked) is less than 0.6 µM
**A:** false (0)

**Q:** Lab note: confirm whether the reported IC50 for this compound is below 0.6 µM, equality not counting. compound: CC1(C)CCC(CN2CC3CC(C2)N3C(=O)c2ccc3c(c2)CN(C2CCC(=O)NC2=O)C3=O)=C(c2ccc(F)cc2)C1 (centres unmarked)
**A:** false (0)

**Q:** Please indicate whether the reported IC50 of O=C1CCC(N2Cc3cc(CN4CCN(Cc5ccc(-c6cccs6)o5)CC4)ccc3C2=O)C(=O)N1 (centres unmarked) is strictly below 0.6 µM.
**A:** true (1)

Next:
**Q:** hey, is IC50 for O=C1CCC(N2Cc3cc(C(=O)N4CC5(CCN(Cc6ccccc6-c6ccc(Cl)cc6)CC5)C4)ccc3C2=O)C(=O)N1 (centres unmarked) lower than 0.6 µM or not?
**A:** false (0)

**Q:** Lab log: compare recorded IC50 with 0.6 µM; is it strictly lower for CC1(C)CCC(CN2CCC3(CC2)CN(Cc2ccc4c(c2)CN(C2CCC(=O)NC2=O)C4=O)C3)=C(c2ccc(Cl)cc2)C1 (centres unmarked) ?
**A:** false (0)

**Q:** Please state whether IC50 is below 0.6 µM for O=C1CCC(N2Cc3cc(CN4CC5(C4)CN(C(=O)c4ccccc4-c4ccc(Cl)cc4)C5)ccc3C2=O)C(=O)N1 (centres unmarked)
**A:** true (1)

**Q:** Given O=C1CCC(N2Cc3cc(CN4CCN(Cc5ccccc5-c5ccc(Cl)cn5)CC4)ccc3C2=O)C(=O)N1 (centres unmarked) , is recorded IC50 strictly lower than 0.6 µM?
**A:** true (1)

**Q:** I'd appreciate it if you could check whether O=C1CCC(N2Cc3cc(CN4CC5(CCN(Cc6ccccc6-c6ccc(Cl)cc6)CC5)C4)ccc3C2=O)C(=O)N1 (centres unmarked) has IC50 smaller than 0.6 µM.
**A:** false (0)

**Q:** Is 0.6 µM strictly greater than the compound's reported IC50? compound: CC1(C)CCC(CN2CC3CCC(C2)N3Cc2ccc3c(c2)CN(C2CCC(=O)NC2=O)C3=O)=C(c2ccc(Cl)cc2)C1 (centres unmarked)
**A:** false (0)

**Q:** Is the reported IC50 for O=C1CCC(N2Cc3ccc(CN4C5CC4CN(C(=O)C4=C(c6ccc(F)cc6)CCCC4)C5)cc3C2=O)C(=O)N1 (centres unmarked) strictly below 0.6 µM?
**A:** false (0)

**Q:** Just wondering, is IC50 of O=C1CCC(N2Cc3cc(CN4C5CC4CN(C(=O)c4ccccc4-c4ccc(Cl)cc4)C5)c(F)cc3C2=O)C(=O)N1 (centres unmarked) below 0.6 µM?
**A:** false (0)

**Q:** Find out if reported IC50 for CC1(C)CCC(CN2CC3CC(C2)N3Cc2cc(F)c3c(c2)CN(C2CCC(=O)NC2=O)C3=O)=C(c2ccc(Cl)cc2)C1 (centres unmarked) is less than 0.6 µM
**A:** true (1)

**Q:** Decide: IC50 of CC1(C)CCC(CN2C3CC2CN(Cc2ccc4c(c2)CN(C2CCC(=O)NC2=O)C4=O)C3)=C(c2ccc(F)cc2)C1 (centres unmarked) strictly below 0.6 µM?
**A:** true (1)
